Parameter: log(Kinetic_solubility). Scope: all listed entries.
ASSAY CONTEXT: buffer, pH 2, […], 500 µM

Use these answered entries as a reference point.
{"SMILES STR": "Cn1cc2cc(C(=O)Nc3ccc(Cl)c(Cl)c3)ccc2n1", "VALUE OBSERVED": -4.24}
{"SMILES STR": "Cn1cc2cc(C(=O)Nc3ccc(F)c(Cl)c3)ccc2n1", "VALUE OBSERVED": -3.36}
{"SMILES STR": "Cn1ncc2cc(C(=O)Nc3ccc(Cl)c(Cl)c3)ccc21", "VALUE OBSERVED": -5.39}

Proceed to the following item.
Reported log(Kinetic_solubility) for `O=C(Nc1ccc(F)c(F)c1)c1ccc2[nH]ncc2c1` was -4.21

###

TARGET UNDER TEST: Amine oxidase [flavin-containing] B (Homo sapiens, UniProt P27338)
Sequence (P27338 whole entry): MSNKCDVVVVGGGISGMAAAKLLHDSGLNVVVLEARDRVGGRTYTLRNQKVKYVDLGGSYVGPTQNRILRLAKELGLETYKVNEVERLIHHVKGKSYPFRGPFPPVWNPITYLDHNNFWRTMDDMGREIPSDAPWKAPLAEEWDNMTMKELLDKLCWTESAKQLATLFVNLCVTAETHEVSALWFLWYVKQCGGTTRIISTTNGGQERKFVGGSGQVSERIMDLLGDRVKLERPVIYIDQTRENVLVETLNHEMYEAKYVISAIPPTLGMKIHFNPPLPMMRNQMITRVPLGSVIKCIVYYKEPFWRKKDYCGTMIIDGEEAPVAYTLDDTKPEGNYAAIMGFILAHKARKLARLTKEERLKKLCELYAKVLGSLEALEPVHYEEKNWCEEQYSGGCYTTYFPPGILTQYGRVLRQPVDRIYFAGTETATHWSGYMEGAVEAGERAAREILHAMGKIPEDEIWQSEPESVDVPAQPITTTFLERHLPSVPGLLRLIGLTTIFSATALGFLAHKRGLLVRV
QUANTITY MEASURED: Ki (nM)
Reply numerically in nM, unit not repeated.

Use these answered entries as a reference point.
{"SMILES STR": "Cn1cc2cc(C(=O)Nc3ccc(Cl)c(Cl)c3)ccc2n1", "Ki, nM": 0.64}
{"SMILES STR": "Cn1cc2cc(C(=O)Nc3ccc(F)c(Cl)c3)ccc2n1", "Ki, nM": 3.57}

Proceed to the following item.
Reported Ki for `COCCn1ncc2cc(C(=O)Nc3ccc(Cl)c(Cl)c3)ccc21` was 0.48

###

Parameter: log(Kinetic_solubility). Scope: all listed entries.
ASSAY CONTEXT: buffer, pH 7.4, […], 500 µM
// keep it numeric: no unit symbol after the value

Reported log(Kinetic_solubility) for `Cn1cc2cc(C(=O)Nc3ccc(F)c(Cl)c3)ccc2n1` was -3.36

Reported log(Kinetic_solubility) for `O=C(Nc1ccc(F)c(F)c1)c1ccc2[nH]ncc2c1` was -4.22

Reported log(Kinetic_solubility) for `Cn1ncc2cc(C(=O)Nc3ccc(Cl)c(Cl)c3)ccc21` was -5.45

Reported log(Kinetic_solubility) for `Cn1cc2cc(C(=O)Nc3ccc(Cl)c(Cl)c3)ccc2n1` was -4.25

###

Parameter: solubility kinetic at […], 500 µM. Scope: all listed entries.
PROTOCOL DETAILS: physchem
ASSAY CONTEXT: phosphate buffer, pH 7.4
Reply numerically in µM, unit not repeated.

{"SMILES STR": "Cn1ncc2cc(C(=O)Nc3ccc(F)c(Cl)c3)ccc21", "solubility kinetic at […], 500 µM / µM": 77.4}
{"SMILES STR": "Cn1cc2cc(C(=O)Nc3ccc(F)c(Cl)c3)ccc2n1", "solubility kinetic at […], 500 µM / µM": 441}
{"SMILES STR": "O=C(Nc1ccc(F)c(F)c1)c1ccc2[nH]ncc2c1", "solubility kinetic at […], 500 µM / µM": 60.7}

Reported solubility kinetic at […], 500 µM for `Cn1cc2cc(C(=O)Nc3ccc(Cl)c(Cl)c3)ccc2n1` was 55.9

Reported solubility kinetic at […], 500 µM for `Cn1ncc2cc(C(=O)Nc3ccc(Cl)c(Cl)c3)ccc21` was 3.51

###

Parameter: solubility kinetic at […], 500 µM. Scope: all listed entries.
PROTOCOL DETAILS: physchem
ASSAY CONTEXT: phosphate buffer, pH 5.5
Reply numerically in µM, unit not repeated.

Use these answered entries as a reference point.
{"SMILES STR": "O=C(Nc1ccc(F)c(F)c1)c1ccc2[nH]ncc2c1", "solubility kinetic at […], 500 µM, µM": 62.7}
{"SMILES STR": "Cn1cc2cc(C(=O)Nc3ccc(F)c(Cl)c3)ccc2n1", "solubility kinetic at […], 500 µM, µM": 421}
{"SMILES STR": "Cn1ncc2cc(C(=O)Nc3ccc(F)c(Cl)c3)ccc21", "solubility kinetic at […], 500 µM, µM": 69.1}
{"SMILES STR": "Cn1cc2cc(C(=O)Nc3ccc(Cl)c(Cl)c3)ccc2n1", "solubility kinetic at […], 500 µM, µM": 50}

Proceed to the following item.
Reported solubility kinetic at […], 500 µM for `Cn1ncc2cc(C(=O)Nc3ccc(Cl)c(Cl)c3)ccc21` was 3.04

###

TARGET UNDER TEST: Amine oxidase [flavin-containing] A (Homo sapiens, UniProt P21397)
Sequence (P21397 whole entry): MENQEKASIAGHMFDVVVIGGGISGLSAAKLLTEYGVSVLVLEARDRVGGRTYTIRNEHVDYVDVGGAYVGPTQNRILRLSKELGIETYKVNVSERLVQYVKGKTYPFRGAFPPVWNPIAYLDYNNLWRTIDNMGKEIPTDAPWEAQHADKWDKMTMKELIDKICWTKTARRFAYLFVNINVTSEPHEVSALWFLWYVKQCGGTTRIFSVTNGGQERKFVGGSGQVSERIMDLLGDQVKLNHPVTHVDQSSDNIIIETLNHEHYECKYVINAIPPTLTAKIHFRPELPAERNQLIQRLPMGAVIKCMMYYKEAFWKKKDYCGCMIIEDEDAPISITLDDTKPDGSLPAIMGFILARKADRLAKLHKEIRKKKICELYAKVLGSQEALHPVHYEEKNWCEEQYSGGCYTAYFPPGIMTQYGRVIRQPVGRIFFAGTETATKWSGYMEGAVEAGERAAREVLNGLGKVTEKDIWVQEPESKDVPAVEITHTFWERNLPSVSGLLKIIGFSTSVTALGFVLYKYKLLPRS
QUANTITY MEASURED: IC50 (nM)
Reply numerically in nM, unit not repeated.

{"SMILES STR": "Cn1cc2cc(C(=O)Nc3ccc(F)c(Cl)c3)ccc2n1", "TARGET UNDER TEST": "Amine oxidase [flavin-containing] A (Homo sapiens, UniProt P21397)", "IC50, nM": 8.13}
{"SMILES STR": "COCCn1ncc2cc(C(=O)Nc3ccc(Cl)c(Cl)c3)ccc21", "TARGET UNDER TEST": "Amine oxidase [flavin-containing] A (Homo sapiens, UniProt P21397)", "IC50, nM": 2870}

Reported IC50 for `O=C(Nc1ccc(F)c(F)c1)c1ccc2[nH]ncc2c1` was 6.61

###

PROTOCOL DETAILS: Effective permeability of the compound at pH 5.5 at 200 uM after 4 hrs by PAMPA-GI assay
Assay type: physicochemical
ASSAY CONTEXT: read-out: Peff
Parameter: Papp at 4 h, 200 µM. Scope: all listed entries.
Reply numerically in nm/s, unit not repeated.

Use these answered entries as a reference point.
{"SMILES STR": "Cn1cc2cc(C(=O)Nc3ccc(Cl)c(Cl)c3)ccc2n1", "UNIT INFO": "nm/s", "Papp at 4 h, 200 µM": 161}
{"SMILES STR": "Cn1cc2cc(C(=O)Nc3ccc(F)c(Cl)c3)ccc2n1", "UNIT INFO": "nm/s", "Papp at 4 h, 200 µM": 91.1}
{"SMILES STR": "Cn1ncc2cc(C(=O)Nc3ccc(F)c(Cl)c3)ccc21", "UNIT INFO": "nm/s", "Papp at 4 h, 200 µM": 295}

Proceed to the following item.
Reported Papp at 4 h, 200 µM for `Cn1ncc2cc(C(=O)Nc3ccc(Cl)c(Cl)c3)ccc21` was 168

###

PROTOCOL DETAILS: physchem
ASSAY CONTEXT: phosphate buffer, pH 2
Parameter: solubility kinetic at […], 500 µM. Scope: all listed entries.
Reply numerically in µM, unit not repeated.

Use these answered entries as a reference point.
{"SMILES STR": "Cn1cc2cc(C(=O)Nc3ccc(Cl)c(Cl)c3)ccc2n1", "solubility kinetic at […], 500 µM [µM]": 57.5}
{"SMILES STR": "O=C(Nc1ccc(F)c(F)c1)c1ccc2[nH]ncc2c1", "solubility kinetic at […], 500 µM [µM]": 61.1}
{"SMILES STR": "Cn1ncc2cc(C(=O)Nc3ccc(Cl)c(Cl)c3)ccc21", "solubility kinetic at […], 500 µM [µM]": 4.07}
{"SMILES STR": "Cn1ncc2cc(C(=O)Nc3ccc(F)c(Cl)c3)ccc21", "solubility kinetic at […], 500 µM [µM]": 57.5}

Reported solubility kinetic at […], 500 µM for `Cn1cc2cc(C(=O)Nc3ccc(F)c(Cl)c3)ccc2n1` was 439
